Some compounds, each annotated with its measured inhibition at 1 µM.
target-under-test: CDK12/CycK complex (Homo sapiens)
Sequence (Q9NYV4 whole entry, species assumed): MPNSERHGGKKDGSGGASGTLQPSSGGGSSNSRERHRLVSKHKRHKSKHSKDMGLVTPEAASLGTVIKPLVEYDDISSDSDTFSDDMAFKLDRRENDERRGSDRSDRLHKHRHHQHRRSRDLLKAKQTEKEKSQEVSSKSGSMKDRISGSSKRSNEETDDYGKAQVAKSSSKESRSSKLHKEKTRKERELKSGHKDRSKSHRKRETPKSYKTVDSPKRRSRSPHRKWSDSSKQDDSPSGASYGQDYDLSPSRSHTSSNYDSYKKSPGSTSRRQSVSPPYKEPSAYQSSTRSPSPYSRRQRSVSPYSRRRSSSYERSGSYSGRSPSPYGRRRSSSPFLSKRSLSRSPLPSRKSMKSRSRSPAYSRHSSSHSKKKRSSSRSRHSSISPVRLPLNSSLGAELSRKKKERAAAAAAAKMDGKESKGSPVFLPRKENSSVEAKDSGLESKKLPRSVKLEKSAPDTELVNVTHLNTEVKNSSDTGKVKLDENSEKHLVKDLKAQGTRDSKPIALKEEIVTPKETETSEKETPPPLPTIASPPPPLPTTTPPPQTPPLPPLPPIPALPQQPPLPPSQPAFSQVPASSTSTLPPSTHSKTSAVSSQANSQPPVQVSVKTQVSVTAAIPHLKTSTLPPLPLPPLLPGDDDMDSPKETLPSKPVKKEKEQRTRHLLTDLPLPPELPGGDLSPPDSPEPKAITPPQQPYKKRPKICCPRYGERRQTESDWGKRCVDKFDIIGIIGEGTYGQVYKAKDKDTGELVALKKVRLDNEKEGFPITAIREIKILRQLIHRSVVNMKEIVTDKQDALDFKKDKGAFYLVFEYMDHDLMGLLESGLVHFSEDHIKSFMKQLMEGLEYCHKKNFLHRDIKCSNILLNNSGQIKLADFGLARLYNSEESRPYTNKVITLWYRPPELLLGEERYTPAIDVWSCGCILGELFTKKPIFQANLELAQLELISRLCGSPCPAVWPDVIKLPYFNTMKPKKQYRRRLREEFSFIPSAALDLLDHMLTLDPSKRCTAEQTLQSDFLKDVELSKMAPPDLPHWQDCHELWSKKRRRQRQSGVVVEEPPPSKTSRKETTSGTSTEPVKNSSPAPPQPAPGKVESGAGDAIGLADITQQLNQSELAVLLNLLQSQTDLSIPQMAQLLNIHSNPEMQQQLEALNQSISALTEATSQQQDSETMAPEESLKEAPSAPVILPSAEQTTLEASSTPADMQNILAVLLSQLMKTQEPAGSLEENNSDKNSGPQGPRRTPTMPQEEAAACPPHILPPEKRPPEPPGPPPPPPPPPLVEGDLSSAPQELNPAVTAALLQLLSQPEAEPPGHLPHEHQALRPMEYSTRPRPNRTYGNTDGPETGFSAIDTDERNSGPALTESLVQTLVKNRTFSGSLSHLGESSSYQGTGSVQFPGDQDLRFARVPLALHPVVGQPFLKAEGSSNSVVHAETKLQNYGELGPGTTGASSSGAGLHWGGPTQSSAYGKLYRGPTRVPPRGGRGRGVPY
Sequence (O75909 whole entry partner, species assumed): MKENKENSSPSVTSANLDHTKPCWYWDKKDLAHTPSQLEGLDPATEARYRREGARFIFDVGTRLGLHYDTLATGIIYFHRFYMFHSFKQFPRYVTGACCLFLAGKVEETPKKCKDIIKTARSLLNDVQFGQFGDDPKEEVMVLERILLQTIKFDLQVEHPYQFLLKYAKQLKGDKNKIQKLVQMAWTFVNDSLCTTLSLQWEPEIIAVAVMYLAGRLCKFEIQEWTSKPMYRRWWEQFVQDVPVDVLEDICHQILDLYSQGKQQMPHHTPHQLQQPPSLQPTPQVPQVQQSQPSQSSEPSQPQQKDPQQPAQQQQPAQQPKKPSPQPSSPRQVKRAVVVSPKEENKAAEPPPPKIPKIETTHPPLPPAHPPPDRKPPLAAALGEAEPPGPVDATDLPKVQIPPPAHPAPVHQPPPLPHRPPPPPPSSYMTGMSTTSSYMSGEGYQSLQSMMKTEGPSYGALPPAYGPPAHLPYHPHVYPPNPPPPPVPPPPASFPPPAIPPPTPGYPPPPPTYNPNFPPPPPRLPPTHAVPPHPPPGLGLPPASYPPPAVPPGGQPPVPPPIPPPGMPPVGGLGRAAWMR
test-summary: Measurement of CDK12 inhibitory activity by binding assay (BODIPY-FL labeled AT-7519 high concentration conditions, 1320 nM)
test-parameters: inhibitory rate against CDK12 at 1 μM test compound, 1320 nM BODIPY-FL-labeled AT-7519, 8 nM CDK12/CycK
value-kind: inhibition at 1 µM (%)

[
  {
    "compound": "COCCNC(=O)N(c1cnc(-c2cnn(C)c2)cn1)[C@H]1CC[C@H](Nc2ncc(C(F)(F)F)c(-c3nn(C(F)F)cc3Cl)n2)CC1 [Example 756]",
    "reported-measurement": 90
  },
  {
    "compound": "COCC(=O)N(c1cnc(-c2cnc(OC)nc2)cn1)[C@H]1CC[C@H](Nc2ncc(C(F)(F)F)c(-c3ccn(C(F)F)n3)n2)CC1 [Example 797]",
    "reported-measurement": 92
  },
  {
    "compound": "CCCC(=O)N(c1cnc(-c2cnc(OC)nc2)cn1)[C@H]1CC[C@H](Nc2ncc(C(F)(F)F)c(-c3cncc(S(C)(=O)=O)c3)n2)CC1 [Example 798]",
    "reported-measurement": 92
  },
  {
    "compound": "Cn1ccc(-c2cnc(N(C(=O)NCC(F)(F)F)[C@H]3CC[C@H](Nc4ncc(C(F)(F)F)c(-c5ccn(C(F)F)n5)n4)CC3)cn2)cc1=O [Example 768]",
    "reported-measurement": 92
  },
  {
    "compound": "COc1ncc(-c2cnc(N(C(=O)NCc3ccccc3)[C@H]3CC[C@H](Nc4ncc(C(F)(F)F)c(OC5(C)COC5)n4)CC3)cn2)cn1 [Example 640]",
    "reported-measurement": 105
  },
  {
    "compound": "COCC(=O)N(c1cnc(-c2cnn(C)c2)cn1)[C@H]1CC[C@H](Nc2ncc(C(F)(F)F)c(-c3cncc(S(C)(=O)=O)c3)n2)CC1 [Example 812]",
    "reported-measurement": 95
  }
]

====

target-under-test: CDK12/CycK complex (Homo sapiens)
test-summary: Measurement of CDK12 inhibitory activity by binding assay (TR-FRET, 66 nM BODIPY-FL-labeled AT-7519)
test-parameters: inhibitory rate against CDK12 at 1 μM test compound, 66 nM BODIPY-FL-labeled AT-7519, 2 nM CDK12/CycK
value-kind: inhibition at 1 µM (%)

[
  {
    "molecule": "Cn1ccc(-c2ccc(N(C(=O)NCc3ccccc3)[C@H]3CC[C@H](Nc4ncc(C#N)c(NC5COC5)n4)CC3)cc2)cc1=O [Example 530]",
    "target-under-test": "CDK12/CycK complex (Homo sapiens)",
    "value-kind": "inhibition at 1 µM",
    "units-text": "%",
    "reported-measurement": 100
  },
  {
    "molecule": "Cn1cc(-c2ccc(N(C(=O)NCc3ccccc3)[C@H]3CC[C@H](Nc4ncc(C#N)c(OC5COC5)n4)CC3)nc2)cn1 [Example 485]",
    "target-under-test": "CDK12/CycK complex (Homo sapiens)",
    "value-kind": "inhibition at 1 µM",
    "units-text": "%",
    "reported-measurement": 102
  },
  {
    "molecule": "Cn1cc(-c2ccc(N(C(=O)NCc3ccccc3)[C@H]3CC[C@H](Nc4ncc(C#N)c(NC5COC5)n4)CC3)nc2)cn1 [Example 319]",
    "target-under-test": "CDK12/CycK complex (Homo sapiens)",
    "value-kind": "inhibition at 1 µM",
    "units-text": "%",
    "reported-measurement": 94
  },
  {
    "molecule": "COc1ncc(-c2cnc(N(C(=O)OCc3ccccc3)[C@H]3CC[C@H](Nc4ncc(C#N)c(N5CCCC(O)CC5)n4)CC3)nc2)cn1 (some centres unmarked) [Example 611]",
    "target-under-test": "CDK12/CycK complex (Homo sapiens)",
    "value-kind": "inhibition at 1 µM",
    "units-text": "%",
    "reported-measurement": 101
  },
  {
    "molecule": "COc1ncc(-c2ccc(N(C(=O)NCc3ccccc3)[C@H]3CC[C@H](Nc4ncc(C(F)(F)F)c(N5CC(C)(O)C5)n4)CC3)nc2)cn1 [Example 625]",
    "target-under-test": "CDK12/CycK complex (Homo sapiens)",
    "value-kind": "inhibition at 1 µM",
    "units-text": "%",
    "reported-measurement": 103
  },
  {
    "molecule": "Cn1cc(-c2ccc(N(C(=O)NCc3ccccc3)[C@H]3CC[C@H](Nc4ncc(C#N)c(NC5COC5)n4)CC3)cc2)ccc1=O [Example 483]",
    "target-under-test": "CDK12/CycK complex (Homo sapiens)",
    "value-kind": "inhibition at 1 µM",
    "units-text": "%",
    "reported-measurement": 103
  },
  {
    "molecule": "Cn1cc(-c2cnc(N(C(=O)NCc3ccccc3)[C@H]3CC[C@H](Nc4ncc(C#N)c(-c5ccc(C#N)s5)n4)CC3)cn2)cn1 [Example 495]",
    "target-under-test": "CDK12/CycK complex (Homo sapiens)",
    "value-kind": "inhibition at 1 µM",
    "units-text": "%",
    "reported-measurement": 81
  },
  {
    "molecule": "COc1ncc(-c2ccc(N(C(=O)NCc3ccccn3)[C@H]3CC[C@H](Nc4ncc(C(F)(F)F)c(OC5COC5)n4)CC3)nc2)cn1 [Example 610]",
    "target-under-test": "CDK12/CycK complex (Homo sapiens)",
    "value-kind": "inhibition at 1 µM",
    "units-text": "%",
    "reported-measurement": 103
  },
  {
    "molecule": "COc1ncc(-c2ccc(N(C(=O)NCc3ccccc3F)[C@H]3CC[C@H](Nc4ncc(C#N)c(NC5COC5)n4)CC3)nc2)cn1 [Example 582]",
    "target-under-test": "CDK12/CycK complex (Homo sapiens)",
    "value-kind": "inhibition at 1 µM",
    "units-text": "%",
    "reported-measurement": 91
  },
  {
    "molecule": "COc1ncc(-c2ccc(N(C(=O)OCc3ccccc3)[C@H]3CC[C@H](Nc4ncc(C#N)c(N5CCCC(O)CC5)n4)CC3)nc2)cn1 (some centres unmarked) [Example 599]",
    "target-under-test": "CDK12/CycK complex (Homo sapiens)",
    "value-kind": "inhibition at 1 µM",
    "units-text": "%",
    "reported-measurement": 102
  },
  {
    "molecule": "Cc1cc(-c2nc(N[C@H]3CC[C@H](N(C(=O)NCc4ccccc4)c4cnc(-c5cnn(C)c5)cn4)CC3)ncc2C#N)[nH]n1 [Example 552]",
    "target-under-test": "CDK12/CycK complex (Homo sapiens)",
    "value-kind": "inhibition at 1 µM",
    "units-text": "%",
    "reported-measurement": 98
  },
  {
    "molecule": "Cn1cc(-c2ccc(N(C(=O)NCc3ccccc3)[C@H]3CC[C@H](Nc4ncc(C#N)c(-c5ccc(C#N)s5)n4)CC3)nn2)cn1 [Example 538]",
    "target-under-test": "CDK12/CycK complex (Homo sapiens)",
    "value-kind": "inhibition at 1 µM",
    "units-text": "%",
    "reported-measurement": 86
  },
  {
    "molecule": "Cn1cc(-c2ccc(N(C(=O)NCc3ccccc3)[C@H]3CC[C@H](Nc4ncc(C(F)(F)F)c(NC5COC5)n4)CC3)nc2)cn1 [Example 574]",
    "target-under-test": "CDK12/CycK complex (Homo sapiens)",
    "value-kind": "inhibition at 1 µM",
    "units-text": "%",
    "reported-measurement": 103
  },
  {
    "molecule": "COc1ncc(-c2cnc(N(C(=O)OCc3ccccc3)[C@H]3CC[C@H](Nc4ncc(C#N)c(N5CC(C)(O)C5)n4)CC3)nc2)cn1 [Example 619]",
    "target-under-test": "CDK12/CycK complex (Homo sapiens)",
    "value-kind": "inhibition at 1 µM",
    "units-text": "%",
    "reported-measurement": 98
  },
  {
    "molecule": "COc1ncc(-c2ccc(N(C(=O)COc3ccccc3)[C@H]3CC[C@H](Nc4ncc(C(F)(F)F)c(OC5COC5)n4)CC3)nc2)cn1 [Example 627]",
    "target-under-test": "CDK12/CycK complex (Homo sapiens)",
    "value-kind": "inhibition at 1 µM",
    "units-text": "%",
    "reported-measurement": 98
  },
  {
    "molecule": "COc1ncc(-c2ccc(N(C(=O)N[C@@H](C)c3ccccc3)[C@H]3CC[C@H](Nc4ncc(C(F)(F)F)c(N5CC(C)(O)C5)n4)CC3)nc2)cn1 [Example 633]",
    "target-under-test": "CDK12/CycK complex (Homo sapiens)",
    "value-kind": "inhibition at 1 µM",
    "units-text": "%",
    "reported-measurement": 102
  },
  {
    "molecule": "Cn1cc(-c2ccc(N(C(=O)NCc3ccccc3)[C@H]3CC[C@H](Nc4ncc(C#N)c(NC5COC5)n4)CC3)nn2)cn1 [Example 532]",
    "target-under-test": "CDK12/CycK complex (Homo sapiens)",
    "value-kind": "inhibition at 1 µM",
    "units-text": "%",
    "reported-measurement": 106
  },
  {
    "molecule": "Cn1cc(-c2ccc(N(C(=O)NCc3ccccc3)[C@H]3CC[C@H](Nc4ncc(C#N)c(-c5cncc(S(C)(=O)=O)c5)n4)CC3)nc2)cn1 [Example 440]",
    "target-under-test": "CDK12/CycK complex (Homo sapiens)",
    "value-kind": "inhibition at 1 µM",
    "units-text": "%",
    "reported-measurement": 99
  },
  {
    "molecule": "COc1ncc(-c2cnc(N(C(=O)NCc3ccccc3)[C@H]3CC[C@H](Nc4ncc(C(F)(F)F)c(OC5COC5)n4)CC3)nc2)cn1 [Example 606]",
    "target-under-test": "CDK12/CycK complex (Homo sapiens)",
    "value-kind": "inhibition at 1 µM",
    "units-text": "%",
    "reported-measurement": 96
  },
  {
    "molecule": "COc1ncc(-c2ccc(N(C(=O)NCc3ccccc3)[C@H]3CC[C@H](Nc4ncc(C(F)(F)F)c(OC5COC5)n4)CC3)nc2)cn1 [Example 588]",
    "target-under-test": "CDK12/CycK complex (Homo sapiens)",
    "value-kind": "inhibition at 1 µM",
    "units-text": "%",
    "reported-measurement": 99
  },
  {
    "molecule": "COc1ncc(-c2ccc(N(C(=O)COc3ccccc3)[C@H]3CC[C@H](Nc4ncc(C#N)c(NC5COC5)n4)CC3)nc2)cn1 [Example 587]",
    "target-under-test": "CDK12/CycK complex (Homo sapiens)",
    "value-kind": "inhibition at 1 µM",
    "units-text": "%",
    "reported-measurement": 102
  },
  {
    "molecule": "Cn1cc(-c2cnc(N(C(=O)NCc3ccccc3)[C@H]3CC[C@H](Nc4ncc(C#N)c(NC5COC5)n4)CC3)cn2)cn1 [Example 539]",
    "target-under-test": "CDK12/CycK complex (Homo sapiens)",
    "value-kind": "inhibition at 1 µM",
    "units-text": "%",
    "reported-measurement": 99
  },
  {
    "molecule": "COc1ncc(-c2ccc(N(C(=O)NCc3ccccc3)[C@H]3CC[C@H](Nc4ncc(C#N)c(OC5COC5)n4)CC3)nc2)cn1 [Example 609]",
    "target-under-test": "CDK12/CycK complex (Homo sapiens)",
    "value-kind": "inhibition at 1 µM",
    "units-text": "%",
    "reported-measurement": 99
  },
  {
    "molecule": "COc1ncc(-c2cnc(N(C(=O)NCc3ccccc3)[C@H]3CC[C@H](Nc4ncc(C#N)c(N5CCCC(O)CC5)n4)CC3)nc2)cn1 (some centres unmarked) [Example 596]",
    "target-under-test": "CDK12/CycK complex (Homo sapiens)",
    "value-kind": "inhibition at 1 µM",
    "units-text": "%",
    "reported-measurement": 103
  },
  {
    "molecule": "Cn1cc(-c2ccc(N(C(=O)NCc3ccccc3)[C@H]3CC[C@H](Nc4ncc(C#N)c(NCCCO)n4)CC3)cc2)cn1 [Example 199]",
    "target-under-test": "CDK12/CycK complex (Homo sapiens)",
    "value-kind": "inhibition at 1 µM",
    "units-text": "%",
    "reported-measurement": 101
  },
  {
    "molecule": "COc1ncc(-c2cnc(N(C(=O)OCc3ccccc3)[C@H]3CC[C@H](Nc4ncc(C#N)c(NC5COC5)n4)CC3)nc2)cn1 [Example 608]",
    "target-under-test": "CDK12/CycK complex (Homo sapiens)",
    "value-kind": "inhibition at 1 µM",
    "units-text": "%",
    "reported-measurement": 98
  }
]
